tested on: Italian ryegrass (Lolium multiflorum); test: Test B pre-/postemergence plant response; format: in vivo; conditions: 62 g ai/ha, postemergence; 0 is no effect, 100 is complete control; 13 to 15 days
test-readout: Ryegrass, Italian plant response rating (0 to 100 scale)

• O=C1CCCC(O)=C1C(=O)c1cnc(-c2cccnc2)n(-c2ccccc2)c1=O = 45
• CCCc1ncc(C(=O)C2=C(O)CCCC2=O)c(=O)n1CCC = 0
• CCCn1c(-c2cccc(OC)c2)ncc(C(=O)C2=C(O)CCCC2=O)c1=O = 5
• O=C1CCCC(O)=C1C(=O)c1cnc(-c2ccccc2)n(C2CCCCCC2)c1=O = 0
• COCCOCCn1c(-c2ccccc2)ncc(C(=O)C2=C(O)CCCC2=O)c1=O = 5
